Values from ChEMBL document CHEMBL6092201

Answer each item with its documented Activity.
molecular target: Mu-type opioid receptor (Homo sapiens); assay: Agonist activity at MOR (unknown origin) assessed as beta-arrestin2 recruitment at 10 uM incubated for 90 to 180 mins by chemiluminescence based microplate reader assay relative to control; format: functional; conditions: time 90-180 min
All answers are understood in %, so give the number only.

# input compound: CC(Cc1c[nH]c2ccccc12)N/C(=N\C#N)NC[C@H](Cc1ccccc1)N(C)C (stereo not given in full) ; wanted: its Activity
-0.7

Requested read-out: Activity. Entry: CC(Cc1ccc[nH]1)N/C(=N\C#N)NC[C@H](Cc1ccccc1)N(C)C (stereo not given in full)
7.9

Fill in: Activity of CC(Cc1cccs1)N/C(=N\C#N)NC[C@H](Cc1ccccc1)N(C)C (stereo not given in full) is ___
2

Need Activity of CC(Cc1c[nH]cn1)N/C(=N\C#N)NC[C@H](Cc1ccccc1)N(C)C (stereo not given in full) , thanks.
2.2

GET /values?readout=Activity&item= "CN(C)[C@H](CN/C(=N/C#N)NCCc1ccccc1)Cc1ccc(O)cc1"
-0.7

Name the reported Activity value associated with the compound "CN(C)[C@H](CN/C(=N/C#N)NCCc1ccccc1)Cc1ccccc1"
2

Name the reported Activity value associated with the compound "COc1ccccc1N/C(=N\C#N)NC[C@H](Cc1ccccc1)N(C)C"
15.2

// query Activity value for entry "COc1cccc(CCN/C(=N\C#N)NC[C@H](Cc2ccccc2)N(C)C)c1"
23

Reported Activity for "COc1ccc(CN/C(=N\C#N)NC[C@H](Cc2ccc(O)cc2)N(C)C)cc1" : what is it?
-0.9

Give its Activity value. Item: "CN(C)[C@H](CN/C(=N/C#N)Nc1ccccc1)Cc1ccccc1"
15.9
